Assay: NCI Yeast Anticancer Drug Screen. Data for the mec2-1 strain (AID 157)
Details: S. cerevisiae mec2-1 strain, at 50.0 µM, active compounds read high
The panel holds about 79,000 compounds, 15% with a hit somewhere; the sample as a whole holds those more often.
// 0.0 strictly below 80% in growth inhibition; 1.0 otherwise

Assess whether reported growth inhibition for CCC(C)NCCNc1cc(OC)cc2cccnc12 (stereo not drawn) sits at 80% or higher.
0.0

More entries:
Assess whether reported growth inhibition for O=C(c1cccnc1)N(C1CCCCC1)C1CCCCC1 sits at 80% or higher.
0.0

Assess whether reported growth inhibition for COc1ccc2c(c1)[n+]([O-])c(-c1ccc(Cl)c(Cl)c1)c(N)[n+]2[O-] sits at 80% or higher.
1.0

Assess whether reported growth inhibition for C[C@@H]1CC=C[C@@H](NC(=O)OCc2ccccc2)[C@H]1C=O sits at 80% or higher.
0.0

Assess whether reported growth inhibition for CCC[CH2][Sn]([CH2]CCC)([O]C(=O)c1cc(F)ccc1F)[O]C(=O)c1cc(F)ccc1F sits at 80% or higher.
1.0

---

Field: growth inhibition. Provide a value for each of the molecules that follow.
Assay: NCI Yeast Anticancer Drug Screen. Data for the bub3 strain (AID 167)
Conditions: S. cerevisiae bub3 mutant strain, at 50.0 µM, active compounds read high
Compounds without any hit were thinned out: in the full panel of roughly 79,000, 15% have a hit.
Give bare numbers, in %.

// solved cases for growth inhibition follow
Data request, read-out growth inhibition, for CC(=O)Nc1ccc(/C=c2\sc3nnc(-c4cccnc4)n3c2=O)cc1
80.5

Data request, read-out growth inhibition, for Cn1c(=O)c2c(O)c(-c3ccccc3)c(=O)n3c4ccccc4n(c1=O)c23
25.9

Data request, read-out growth inhibition, for CC(=O)C(C=O)C(C)=O.CC(=O)CC(C)=O.CC(=O)CC(C)=O.[Ru]
-1.3

Data request, read-out growth inhibition, for Oc1ccc(N=Nc2cc(Cl)ccc2Cl)cc1
98

Data request, read-out growth inhibition, for Cc1ccc(C)c(C(=O)/C=C/C(=O)O)c1
64.1

Please give growth inhibition for each item listed below.
1. CC(C)c1ccc(O)c(O)c(=O)c1
2. CCCCCCCCCCCCOC(=O)C[n+]1cccc(C(N)=O)c1
3. CCCCNC(=O)OCc1c(COC(=O)NCCCC)c(-c2ccc(Cl)c(Cl)c2)n2c1CCC2
4. C=C1C(=O)[C@@]23CC[C@H]4[C@@](C)(CCC[C@@]4(C)C(=O)OC)[C@@H]2CC[C@]1(O)C3
5. CCCCCCCCCCCCCCCc1ncc(C)[nH]1

1: 93.1; 2: 99.6; 3: 4.4; 4: 93.7; 5: 99.5

Please give growth inhibition for each item listed below.
1. CCOC(=O)CC1C(=O)N(c2nc(-c3ccc(Br)cc3)cs2)N=C1C (stereo unspecified)
2. Cc1nc(N)sc1N=Nc1cc(Cl)c([N+](=O)[O-])cc1Cl
3. Cc1ccc(NC(=S)SCc2ccco2)cc1Cl
4. O=S(=O)(O)c1ccc2c(c1)C1C(C3C2C2(Cl)C(Cl)=C(Cl)C3(Cl)C2(Cl)Cl)C2(Cl)C(Cl)=C(Cl)C1(Cl)C2(Cl)Cl (stereo unspecified)

1. 4.05
2. 47.5
3. 99.7
4. 88.6

Please give growth inhibition for each item listed below.
1. Cc1nc(-c2ccccc2)nc2c1nc(C(C)C)n2Nc1ccccc1
2. CCCCCc1cccc(CC(=O)OCC)n1
3. CCOC(=O)[C@@H](F)[C@H](Br)C(=O)OCC
4. COc1ccc(NC(=S)N/N=C/c2cccc(C)n2)cc1
5. COCC(O)Cn1cc([N+](=O)[O-])nc1C (stereo unspecified)
6. COc1cc2c3c(c4ccc(OC)c(OC)c4c2cc1OC)CN1CCC[C@@H]1C3
7. Clc1ccc(-c2nnc(-c3ccccn3)o2)c(Cl)c1
8. O=C1C2=C(C(=O)c3cnccc31)C1C=CC2CC1 (stereo unspecified)

[80.8, -12.3, 84.7, 85.9, 19.2, 92.3, 70.1, 59.9]

---

Assay: NCI Yeast Anticancer Drug Screen. Data for the rad50 strain (AID 155);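 also: 0% = growth of vehicle-only cultures of the same strain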
Conditions: S. cerevisiae rad50 strain growth inhibition; at 50.0 µM (retest, dose inferred, filed as 5.0)
This is part of a sample that, as a whole, favours compounds with a hit. Of some 79,000 tested, about 15% had one in any assay. Calls of active or inactive are those of the source. Rule as the data show it: active = growth inhibition above about 70%; inactive = the rest.
Entry note: the call must match one of T for active, F for inactive

See these solved cases before continuing.
Recorded test outcome, item CC(C)=CCC/C(C)=C/COC(=O)Nc1ccccc1
F

Recorded test outcome, item COC(=O)NC1CCCCCCCCCCC1I (configuration not stated)
T

Recorded test outcome, item COc1cccc(N2CCN(CC(O)COc3cc4c(c5c3CCCC5)CCCC4)CC2)c1 (configuration not stated)
T

More entries:
Recorded test outcome, item CCN(CC)CCSCCCNc1cc(OC)cc2cccnc12
F

Recorded test outcome, item N#C/C=C/C=C/C#N
F

Recorded test outcome, item CCCCCCCCCCCCCC(=O)NO
T

Recorded test outcome, item C(=[CH]/[Sn]([c]1ccccc1)([c]1ccccc1)[c]1ccccc1)/c1ccccc1
T

Recorded test outcome, item CC(C)(C)CC(C)(C)c1ccc(O)cc1O
T

Recorded test outcome, item CCOC(=O)C(Cc1cn(S(=O)(=O)c2ccccc2)c2ccccc12)(NC(C)=O)C(=O)OCC
F

Recorded test outcome, item CCOc1c(N=Nc2ccc(OC)cc2)c(-c2ccccc2)nn1C(N)=S
F

Recorded test outcome, item CCOC(=O)C1(C#N)C(=O)CSC1=Nc1ccccc1Cl (configuration not stated)
F

Recorded test outcome, item O=C(c1c(F)c(F)c(F)c(F)c1F)N1CCN(C(=O)c2c(F)c(F)c(F)c(F)c2F)C1=S
T

---

Field: growth inhibition. Provide a value for each of the compounds that follow.
Assay: NCI Yeast Anticancer Drug Screen. Data for the rad50 strain (AID 155);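 also: 0% = growth of vehicle-only cultures of the same strain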
Conditions: S. cerevisiae rad50 strain growth inhibition; at 50.0 µM; active compounds read high
Protocol: Growth inhibition of yeast strains with defined genetic alterations is measured as a screen for potential anti-cancer activity. Selected strains with alterations in DNA damage repair or cell cycle control were exposed to compounds and growth inhibition was measured relative to vehicle treated controls. The strain used in this assay is rad50
Compounds without any hit were thinned out: in the full panel of roughly 79,000, 15% have a hit.
Answers are plain numbers, in %.

// solved cases for growth inhibition follow
Data request, read-out growth inhibition, for CCCCCN=Cc1c(O)c(O)c(C(C)C)c2cc(C)c(-c3c(C)cc4c(C(C)C)c(O)c(O)c(C=NCCCCC)c4c3O)c(O)c12
14.8

Data request, read-out growth inhibition, for CCCCCCCCCCCCNC(=O)C[n+]1cccc(C(=O)N(C)C)c1
68.3

Data request, read-out growth inhibition, for NN(Cc1ccccc1)c1ccccc1
89.3

Data request, read-out growth inhibition, for OCC(O)C(O)C(O)/C=N\Nc1ccccc1 (stereo unspecified)
49.6

Data request, read-out growth inhibition, for CC(C)NC(=O)CN1C(=O)NC(C)(c2ccccc2)C1=O (stereo unspecified)
75.5

Please give growth inhibition for each item listed below.
1. O=C(CNC(=O)OCc1ccccc1)NNc1ccccc1Cl
2. COc1ccc2cc3c4cc(OC)c(OC)cc4ccn3c2c1
3. c1ccc2[nH]c(CN(CCN(Cc3nc4ccccc4[nH]3)Cc3nc4ccccc4[nH]3)Cc3nc4ccccc4[nH]3)nc2c1
4. O=C(NCCN1CCCC1)c1cn2c(ccc3sc4ccccc4c(=O)c32)n1
5. O=C1/C(=C/c2ccc(F)cc2)CNC/C1=C\c1ccc(F)cc1
6. N#Cc1c(Cl)nsc1-c1ccc([N+](=O)[O-])cc1

[98.7, 33.1, 91.1, 66, 79.2, 91.2]

---

Experiment: NCI Yeast Anticancer Drug Screen. Data for the rad50 strain (AID 155);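 also: 0% = growth of vehicle-only cultures of the same strain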
Details: S. cerevisiae rad50 strain growth inhibition; at 5.0 µM (retest, dose inferred, filed as 0.5); active compounds read high
The panel holds about 79,000 compounds, 15% with a hit somewhere; the sample as a whole holds those more often. The source made the active and inactive calls. No stated cut-off is given here; in the data, active means growth inhibition above about 70%; inactive means the rest.
Field: growth inhibition. Provide a value for each of the compounds that follow.

Data request, read-out growth inhibition, for CC1C(O)Oc2cc3c(cc2C1c1ccccc1O)OCO3 (stereo unspecified)
-10% (inactive)

Please give growth inhibition for each item listed below.
1. COc1cccc(C=Nc2ccc(I)cc2)c1O.COc1cccc(C=Nc2ccc(I)cc2)c1O.[Co]
2. CC(C)CCCC(C)C1CCC2C3CC=C4OC(=O)CCC4(C)C3CCC12C (stereo unspecified)
3. O=C(c1ccc(Cl)cc1)C1OC12C(=O)Nc1c(Cl)cc(Cl)cc12 (stereo unspecified)
4. O=C(CC(=O)c1ccccc1)CC(=O)c1cccc(Cl)c1
5. CC(=O)C(=C(I)I)c1ccccc1
6. O=C(N/C(=C\c1ccc(/C=C(\NC(=O)c2ccccc2)c2nc3ccccc3s2)cc1)c1nc2ccccc2s1)c1ccccc1
7. CCOc1c(N=Nc2ccccc2OC)c(-c2ccccc2)nn1C(N)=S

15% (inactive)
-11% (inactive)
1% (inactive)
-1% (inactive)
-20% (inactive)
57% (inactive)
10% (inactive)

Please give growth inhibition for each item listed below.
1. COc1c2c3c(ccnc3c3ccccc13)C(=O)N2C
2. O=C(Cc1ccccc1)NNc1nc(NNC(=O)c2ccncc2)nc(Nc2ccccc2)n1

1. 29% (inactive)
2. 11% (inactive)
